# systemName: GalNAc(b1-3)GalNAc
# experimentalProtocol: glycan array binding signal (z-score within array); higher = stronger binding
# testSettings: glycan notation: IUPAC condensed, linker removed
The entries come from a sample that favours the strongest signals as a whole.
valueKind: glycan array binding signal (z-score)

>>> obsvalue("F17eG (Escherichia coli), Q9RH92 (protein) MTNFYKVFLAVFILVCCNISHAAVSFIGSTENDVGPSQSSYSRTHAMDNLPFVYNTGYNIGYQNANVWRISGGFCVGLDGKVDLPVVGSLDGQSIYGLTEEVGLLIWMGDTNYSRGTAMSGNSWENVFSGWCVGNYVSTQGLSVHVRPVILKRNSSAQYSVQKTSIGSIRMRPYNGSSAGSVQTTVNFSLNPFTLNDTVTSCRLLTPSAVNVSLAAISAGQLPSSGDEVVAGTTSLKLQCDAGVTVWATLTDATTPSNRSDILTLTGASTATGVGLRIYKNTDSTPLKFGPDSPVKGNENQWQLSTGTETSPSVRLYVKYVNTGEGINPGTVNGISTFTFSYQ")
4.3
